Compiled literature IC50, tested on UniProtKB P03951.
Measurement Kind: IC50

                                    molecule  measurement_kind     result
 0  Cc1cc(C(C)n2cc(NC(=O)c3nc(-c4c(C#N)ccc(Cl)c4F)cnc3C)cn2)cnc1N1C[C@H]2C[C@H]2C1=O (single isomer, unassigned)              IC50   0.972 µM
 1  N=C(N)c1cn(CC(=O)Nc2cc(F)cc(F)c2)c2c(Br)cccc12              IC50    2.51 µM
 2  Nc1c(C(=O)N2CCC[C@@]3(C2)OC(=O)Nc2ccc(Cl)c(F)c23)cnn1C1(c2ccc(F)cc2)CC1              IC50   0.112 µM
 3  Cc1nc(C(C)n2cc(NC(=O)c3cncc(-c4c(C(F)F)ccc(Cl)c4F)n3)cn2)cnc1N1C[C@H]2C[C@H]2C1=O (single isomer, unassigned)              IC50    1.16 µM
 4  CC[C@@H](NC(=O)N1C(=O)[C@H](Cc2ccnc(N)c2)[C@H]1C(=O)N(C)c1ncccn1)c1cccc(Cl)c1              IC50  < 0.01 µM
 5  CC(C)(c1ccccc1)c1nnc(C(=O)N2CCC[C@@]3(C2)OC(=O)Nc2ccc(Cl)c(F)c23)[nH]1              IC50    3.16 µM
 6  CC(C)Cn1ncc(C(=O)N2CCC[C@@]3(C2)OC(=O)Nc2ccc(Cl)c(F)c23)c1N              IC50   0.328 µM
 7  CNC(=O)c1ccc(NC(=O)C(CCOC)n2cc(OC)c(-c3cc(Cl)ccc3OCC(F)(F)F)cc2=O)cc1F (racemic)              IC50   0.019 µM
 8  Cc1ncc(-c2c(C(F)F)ccc(Cl)c2F)nc1C(=O)Nc1cnn(C(C)c2cnc(N3C[C@H]4C[C@H]4C3=O)c(OC(F)F)c2C)c1 (single isomer, unassigned)              IC50    > 10 µM
 9  CC(c1cnc(N2C[C@H]3C[C@H]3C2=S)nc1)n1cc(NC(=O)c2cncc(-c3c(C(F)F)ccc(Cl)c3F)n2)cn1 (single isomer, unassigned)              IC50    > 10 µM
10  Cc1nc(C(C)n2cc(NC(=O)c3cncc(-c4c(C(F)F)ccc(Cl)c4F)n3)cn2)ncc1N1C[C@H]2C[C@H]2C1=O (single isomer, unassigned)              IC50    > 10 µM
11  O=C1Nc2ccc(Cl)c(F)c2[C@@]2(CCCN(C(=O)c3cnn([C@](CO)(CC4CC4)c4ccc(F)cc4)c3)C2)O1              IC50    0.27 µM
12  Cc1nc(C2(n3cc(NC(=O)c4nc(-c5c(C(F)F)ccc(Cl)c5F)cnc4COC(C)(C)C)cn3)CC2)cnc1N1C[C@H]2C[C@H]2C1=O              IC50    > 10 µM

====

Compiled literature log10(IC50), tested on UniProt P03951.
Measurement Kind: log10(IC50) (log10 of the value in nM)

In [3]: df
Out[3]:
                                   compound  quantitative_readout
0  Nc1c(C(=O)N2CCC[C@@]3(C2)OC(=O)Nc2ccc(Cl)c(F)c23)cnn1-c1ccnc2ccc(F)cc12                  2.78
1  COc1cn(C(CC2COCCO2)C(=O)Nc2ccc(C(N)=O)nc2)c(=O)cc1-c1cc(Cl)ccc1OCC(F)F (stereo not shown)                  0.67
2  Nc1c(C(=O)N2CCC[C@@]3(C2)OC(=O)Nc2ccc(Cl)c(F)c23)cnn1CCc1ccccc1                  2.64
3  COc1cn(C(CCOC(C)(C)C)C(=O)Nc2ccc3nn(C)cc3c2)c(=O)cc1-c1cc(Cl)ccc1OCC(F)(F)F (racemic)                  1.15
4  CC(O)c1nc2cc(NC(=O)[C@@H]3CCC4CC(c5c(-n6cnnn6)ccc(Cl)c5F)=CC(=O)N43)ccc2s1 (mixture of isomers)                  1.53
5  CC1(O)CN(C[C@@H]2CCCN2c2ncc(Cn3cc(NC(=O)c4cncc(-c5c(C(F)F)ccc(Cl)c5F)n4)cn3)cn2)C1                  3.78
6  CC[C@@H](c1cc(C)c2nc[nH]c2c1)c1n[nH]c(C(=O)N2CCC[C@@]3(C2)OC(=O)Nc2ccc(Cl)c(F)c23)n1                  2.81
